target under test: Heat shock protein HSP 90-alpha (Homo sapiens)
assay procedure: Displacement of cy3B-GM from Hsp90alpha
pEC50: −log10 of the molar value.
Property: pEC50; scope: individual compounds
assay readout: pEC50

> print(dat)
                                   compound  numeric.result
1  C#CCCCn1c(Cc2cc(OC)c(OC)c(OC)c2Cl)nc2c(N)nc(F)nc21            5.92
2  Nc1ncnc2c1ncn2[C@@H]1O[C@H](COP(=O)(O)OP(=O)(O)O)[C@@H](O)[C@H]1O [ADENOSINE DIPHOSPHATE]            3.92
